SILAC ratio, Tusc3 reference
Target: AEA-DA lipid probe targets in Neuro2a cells (Mus musculus)
Sequence (Q8BTV1 42-347): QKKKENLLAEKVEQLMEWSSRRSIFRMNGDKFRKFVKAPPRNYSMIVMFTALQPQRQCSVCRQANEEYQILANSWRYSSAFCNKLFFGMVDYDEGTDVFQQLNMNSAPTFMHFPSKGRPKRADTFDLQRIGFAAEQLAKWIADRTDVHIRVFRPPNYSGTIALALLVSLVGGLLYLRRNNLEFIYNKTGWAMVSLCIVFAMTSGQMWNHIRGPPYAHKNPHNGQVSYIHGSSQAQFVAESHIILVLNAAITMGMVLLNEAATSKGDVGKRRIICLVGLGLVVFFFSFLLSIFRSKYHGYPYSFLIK
Conditions: competitor 25 μM

compound | SILAC ratio, Tusc3
C=CCN(C)CCCCCCOc1ccc(C(=O)c2ccc(Br)cc2)c(F)c1 [Ro 48-8071, reference compound] | 1.2
CN1CCN(C(=O)c2[nH]c3ccc([N+](=O)[O-])cc3c2-c2ccccc2)CC1 | 1.6
O=C(/C=C/c1cccnc1)NCCCCC1CCN(C(=O)c2ccccc2)CC1 [FK-866, reference compound] | 1.3
CN1CCN(C(=O)c2c(-c3ccccc3)c3cc([N+](=O)[O-])ccc3n2C)CC1 | 1.6
